TARGET_SYSTEM: UniProt:P30613
ASSAY: PKR Mutant Assay, dose response (AC50), wild type PKR enzyme
Type: biochemical
MEASUREMENT_CONDITIONS: wild type PKR enzyme
Measured AC50 values are reported for all entries that follow.

Some solved entries appear below for comparison.
Cn1ccc(CC2(O)CCN(C(=O)c3ccc(NS(=O)(=O)c4cccc5nccnc45)cc3)CC2)n1	101 to 1000 nM
Nc1cnc2c(S(=O)(=O)Nc3ccc(C(=O)N4CCC(O)(c5cccc(F)c5F)CC4)cc3)cccc2n1	< 100 nM
CC(C)CC1(O)CCN(C(=O)c2ccc(NS(=O)(=O)c3cccc4[nH]cnc34)cc2)CC1	> 10000 nM
O=C(c1ccc(NS(=O)(=O)c2cccc3scnc23)cc1)N1CCC(O)(c2nc(Cl)cs2)CC1	1010 to 10000 nM
Cc1noc(C)c1CC1(O)CCN(C(=O)c2ccc(NS(=O)(=O)c3cccc4nccnc34)cc2)CC1	< 100 nM
CC(F)(F)CCC1(O)CCN(C(=O)c2ccc(NS(=O)(=O)c3cccc4nccnc34)cc2C#N)CC1	101 to 1000 nM
CS(=O)(=O)CC1(O)CCN(C(=O)c2ccc(NS(=O)(=O)c3cccc4scnc34)cc2)CC1	101 to 1000 nM
CC(F)(F)CCC1(O)CCN(C(=O)c2ccc(NS(=O)(=O)c3cccc4nccnc34)cc2F)CC1	101 to 1000 nM
CC(F)(F)CCC1(O)CCN(C(=O)c2ccc(NS(=O)(=O)c3cccc4scnc34)cc2F)CC1	101 to 1000 nM
CS(=O)(=O)CC1(O)CCN(C(=O)c2ccc(NS(=O)(=O)c3cccc4nccnc34)cc2)CC1	101 to 1000 nM

Item CCn1cc(CC2(O)CCN(C(=O)c3ccc(NS(=O)(=O)c4cccc5scnc45)cc3)CC2)cn1 has what recorded AC50? 1010 to 10000 nM

----------
TARGET_SYSTEM: wt PKR (Homo sapiens, UniProt P30613)
Sequence (P30613 whole entry): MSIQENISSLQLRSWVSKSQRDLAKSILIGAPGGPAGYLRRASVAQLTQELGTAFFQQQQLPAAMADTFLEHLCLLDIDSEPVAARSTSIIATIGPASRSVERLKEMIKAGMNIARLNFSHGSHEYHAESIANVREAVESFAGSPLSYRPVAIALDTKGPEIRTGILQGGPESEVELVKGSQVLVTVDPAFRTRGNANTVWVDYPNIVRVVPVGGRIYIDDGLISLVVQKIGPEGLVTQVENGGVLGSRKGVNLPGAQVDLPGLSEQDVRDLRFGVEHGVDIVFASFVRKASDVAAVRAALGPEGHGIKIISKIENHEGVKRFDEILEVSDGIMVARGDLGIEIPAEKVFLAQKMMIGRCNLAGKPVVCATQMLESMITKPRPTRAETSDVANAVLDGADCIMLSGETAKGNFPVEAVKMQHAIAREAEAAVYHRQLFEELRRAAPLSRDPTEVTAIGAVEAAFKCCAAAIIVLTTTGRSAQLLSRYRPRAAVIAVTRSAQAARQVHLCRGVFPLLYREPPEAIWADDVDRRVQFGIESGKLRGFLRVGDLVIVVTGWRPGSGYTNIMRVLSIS
ASSAY: wt PKR cell based assay
// values below are reported AC50

// AC50 lookup, key: CC(F)(F)CCC1(O)CCN(C(=O)c2ccc(NS(=O)(=O)c3cccc4nc(N)cnc34)cc2)CC1 [Compound 486] < 0.1 µM

For the compound Cc1n[nH]c(C)c1CC1(O)CCN(C(=O)c2ccc(NS(=O)(=O)c3cccc4scnc34)cc2)CC1 [Compound 514] , what AC50 is on record? 0.101 to 1 µM

What does the record list as AC50 for O=C(c1ccc(NS(=O)(=O)c2cccc3scnc23)cc1)N1CCC(O)(C2CCC(O)CC2)CC1 (stereo not shown) [Compound 501] ? 0.101 to 1 µM

Report AC50 for CC(C)CC1(OC(=O)OCOP(=O)(O)O)CCN(C(=O)c2ccc(NS(=O)(=O)c3cccc4scnc34)cc2)CC1 [Compound 526] please. < 0.1 µM

Find the recorded AC50 belonging to CC(C)CC1(OC(=O)OCOP(=O)(O)O)CCN(C(=O)c2ccc(NS(=O)(=O)c3cccc4nccnc34)cc2)CC1 [Compound 527] and report it. < 0.1 µM

Entry O=C(c1ccc(NS(=O)(=O)c2cccc3nccnc23)cc1)N1CCC(O)(Cc2cn[nH]c2)CC1 [Compound 499] has what AC50? 0.101 to 1 µM

// returns reported AC50 for input Nc1cnc2c(S(=O)(=O)Nc3ccc(C(=O)N4CCC(O)(CCCC(F)(F)F)CC4)cc3)cccc2n1 [Compound 482] < 0.1 µM

Which AC50 reading was recorded for the compound CC(F)(F)CCC1(O)CCN(C(=O)c2ccc(NS(=O)(=O)c3cc(F)cc4sc(N)nc34)cc2F)CC1 [Compound 483] ? 0.101 to 1 µM

What does the data say about its AC50? Entry: O=C(c1ccc(NS(=O)(=O)c2cccc3scnc23)cc1)N1CCC(O)(c2ccns2)CC1 [Compound 515] 0.101 to 1 µM

Form field: reported AC50 of CC(F)(F)CCC1(O)CCN(C(=O)c2ccc(NS(=O)(=O)c3cc(F)cc4sc(N)nc34)cc2C#N)CC1 [Compound 491] 0.101 to 1 µM

Query (compound): O=C(c1ccc(NS(=O)(=O)c2cccc3nccnc23)cc1)N1CCC(O)(Cc2c(O)n[nH]c2C(F)(F)F)CC1 [Compound 523] ; field requested: AC50 0.101 to 1 µM

For the compound shown here, Cc1cc(C2(O)CCN(C(=O)c3ccc(NS(=O)(=O)c4cccc5nccnc45)cc3)CC2)sn1 [Compound 518] , give the reported AC50. 0.101 to 1 µM

Which AC50 value belongs to CC(F)(F)CCC1(O)CCN(C(=O)c2ccc(NS(=O)(=O)c3cccc4nccnc34)cc2F)CC1 [Compound 478] ? 0.101 to 1 µM

Recorded AC50 of CC(F)(F)CCC1(O)CCN(C(=O)c2ccc(NS(=O)(=O)c3cccc4scnc34)cc2OC(F)F)CC1 [Compound 473] , please. 0.101 to 1 µM
